Values from patent US20250025411A1

Assay: High throughput screening of water-soluble solid excipients for glucagon dissolution
Type: physicochemical
Settings: 30-minute incubation in pH 7.4 PBS containing 1 mg/mL excipient, 37° C.
Each entry below lists one item and its recorded Fold change vs. PBS Avg. value.
# value in fold; strip the unit string

Would you please look over these solved cases?
# molecule, Fold change vs. PBS Avg., fold
data = [
    ("O=S(=O)(O)CCN1CCN(CCO)CC1", 1.15),
    ("O=C(O)C(S)C(S)C(=O)O (centres unmarked)", 2.38),
    ("O=C(CO)[C@@H](O)[C@H](O)[C@H](O)CO [D-(−)-Fructose]", 1.09),
    ("OC[C@@H](O)[C@@H](O)[C@H](O)[C@@H](O)CO", 1.16),
    ("CCCCCCCCCCCCCC[N+](C)(C)CCCS(=O)(=O)[O-]", 5.33),
    ("NCCS(=O)(=O)O", 1.11),
    ("N[C@@H](CS)C(=O)O", 0.60),
    ("O=C(O)/C=C\\C(=O)O", 0.34),
]

Field request: Fold change vs. PBS Avg. | item: O=C(O)CC(O)C(=O)O (centres unmarked) 0.35

Endpoint output: Fold change vs. PBS Avg. of CC[C@H](C)[C@H](N)C(=O)O . Value? 1.88

Which Fold change vs. PBS Avg. reading was recorded for the molecule O=S(=O)(O)CC(O)CN(CCO)CCO (centres unmarked) ? 1.28

* * *

Test: High throughput screening of water-soluble solid excipients for glucagon dissolution
Type: physicochemical
Conditions: 30-minute incubation in pH 7.4 PBS containing 1 mg/mL excipient, 37° C.
Attribute: Fold change vs. PBS Avg.
// note: answer is a bare numeric in fold

GET /values?readout=Fold change vs. PBS Avg.&item= O=S(=O)(O)CCN1CCN(CCS(=O)(=O)O)CC1 3.70

Given O=C[C@H](O)[C@@H](O)[C@H](O)[C@H](O)CO , state its recorded Fold change vs. PBS Avg.. 1.08

* * *

Assay: High throughput screening of water-soluble solid excipients for glucagon dissolution
Format: physicochemical
Conditions: 30-minute incubation in pH 7.4 PBS containing 1 mg/mL excipient, 37° C.
Reported Fold change vs. PBS Avg. values are given for each entry in this list.
Lab book: enter the figure in fold, no units written.

// below: answered molecules
# molecule, Fold change vs. PBS Avg. / fold
measured = [
    ("NC(CO)(CO)CO", 2.50),
    ("O=C(OC[C@H]1O[C@@H](OC(=O)c2cc(O)c(O)c(OC(=O)c3cc(O)c(O)c(O)c3)c2)[C@H](OC(=O)c2cc(O)c(O)c(OC(=O)c3cc(O)c(O)c(O)c3)c2)[C@@H](OC(=O)c2cc(O)c(O)c(OC(=O)c3cc(O)c(O)c(O)c3)c2)[C@@H]1OC(=O)c1cc(O)c(O)c(OC(=O)c2cc(O)c(O)c(O)c2)c1)c1cc(O)c(O)c(OC(=O)c2cc(O)c(O)c(O)c2)c1", 0.08),
]

Give its Fold change vs. PBS Avg. value. Item: OC[C@H]1O[C@@](CO)(O[C@H]2O[C@H](CO)[C@@H](O)[C@H](O)[C@H]2O)[C@@H](O)[C@@H]1O 1.32

I would be grateful if you could share the reported Fold change vs. PBS Avg. for O=S(=O)(O)CCNC(CO)(CO)CO . 1.75
